Test system: IGROV1 ovarian
Experiment: NCI tumour cell line growth inhibition, 48 h
Below is a list of entries, each paired with its recorded TGI value.

# COMPOUND, RESULT
records = [
    ("CCC[CH2][Sn]1([CH2]CCC)[O]C(=O)c2cccnc2[O]1", "18.4 µM"),
    ("O=C1c2ccccc2C(O)(O)C1(O)C1(O)C(=O)c2ccccc2C1(O)O (stereo not given)", "> 100 µM"),
]

Data request: Find the measured TGI of O=C([CH-]C(=O)c1ccccc1)c1ccccc1.O=C([CH-]C(=O)c1ccccc1)c1ccccc1.[La+3].[OH-].[OH3+] and report it.
Data returned: > 100 µM

Data request: Find the measured TGI of CN(C)CCN1C(=O)c2ccccc2N(C)c2ccccc21 and report it.
Data returned: > 100 µM

Data request: Find the measured TGI of C=C1C(=O)O[C@H]2[C@H]1CC/C(COC(=O)NCc1cn(C)c3ccccc13)=C\CC[C@@]1(C)O[C@@H]21 and report it.
Data returned: 3.31 µM

Data request: Find the measured TGI of O=C(O)c1cc([N+](=O)[O-])cc2c(=O)c3cnccc3[nH]c12 and report it.
Data returned: > 100 µM

Data request: Find the measured TGI of CCOC(=O)C1=C(C)OC2(O)C=CC(O)=C3C(=O)N(c4ccccc4)C(=O)C312 (stereo not given) and report it.
Data returned: 68.2 µM

Data request: Find the measured TGI of CSc1ccc(C(=C=C=C(c2ccc(SC)s2)c2ccc(SC)s2)c2ccc(SC)s2)s1 and report it.
Data returned: > 10 µM

Data request: Find the measured TGI of C=Cc1ccc(C)[n+](C[Si](C)(C)O[Si](C)(C)C)c1 and report it.
Data returned: > 100 µM

Data request: Find the measured TGI of COc1ccc2[nH]cc(CCNC(=O)[C@H](Cc3ccccc3)NC(=O)[C@@H](NCC(F)(F)F)C(C)C)c2c1 and report it.
Data returned: 51.3 µM

Data request: Find the measured TGI of O=c1oc2ccc3ccccc3c2cc1-c1cn2ccccc2n1 and report it.
Data returned: > 100 µM

Data request: Find the measured TGI of CC(=O)OC1COC(n2c(O)c(N=NC(N)=S)c3cc(Br)ccc32)C(OC(C)=O)C1OC(C)=O (stereo not given) and report it.
Data returned: > 100 µM

Data request: Find the measured TGI of C=CCOc1cccc(C2(O)c3ccccc3C3=NCCCN32)c1 (stereo not given) and report it.
Data returned: > 37.4 µM

Data request: Find the measured TGI of Nc1ncnn2c(C3OC(CO)C(O)C3O)ccc12 (stereo not given) and report it.
Data returned: 0.562 µM

Data request: Find the measured TGI of O=c1[nH]c2cc(Cl)ccc2nc1/C(=N\O)C(O)c1cccc([N+](=O)[O-])c1 (stereo not given) and report it.
Data returned: > 100 µM

* * *

System: SF-268 CNS
Experiment: NCI tumour cell line growth inhibition, 48 h
Below is a list of entries, each paired with its recorded TGI value.
Enter your answer as a number in µM; do not include the unit.

# MOLECULE, ASSAY SYSTEM, RESULT NUMBER
records = [
    ("Nc1ncnn2c(C3OC(CO)C(O)C3O)ccc12 (configuration not stated)", "SF-268 CNS", 1.99),
]

Data request: Find the measured TGI of COCCOC(=O)c1c(C)n([O-])c2cc(Cl)c(Cl)cc2[n+]1=O and report it.
Data returned: 59.1

Data request: Find the measured TGI of FC(F)(F)c1ccc(Nc2nc(-c3c(C(F)(F)F)nc4ccccn34)cs2)cc1 and report it.
Data returned: 10.7

Data request: Find the measured TGI of COc1cc(NC(C)CCCNC2CN3CCC2CC3)c2ncccc2c1 (configuration not stated) and report it.
Data returned: 25.8

Data request: Find the measured TGI of O=[N+]([O-])/C(C(Cl)=C(Cl)Cl)=C(\N1CCOCC1)n1nnc2ccccc21 and report it.
Data returned: 40

Data request: Find the measured TGI of O=C(CCCCCCCCC(=O)N/N=C\c1ccccc1O)N/N=C\c1ccccc1O and report it.
Data returned: 9.72

Data request: Find the measured TGI of C=C1c2ccccc2C(=O)c2c1c1c(C(=O)OC)c(O)ccc1n2Cc1ccccc1 and report it.
Data returned: 0.518

Data request: Find the measured TGI of C=C1CCC2C3(C)COC(c4ccc(N(C)C)cc4)OC3CCC2(C)C1C/C=C1/C(=O)OCC1O (configuration not stated) and report it.
Data returned: 14.4

* * *

Tested on: OVCAR-3 ovarian
Test: NCI tumour cell line growth inhibition, 48 h
MEASUREMENT TYPE: TGI

Answered cases to consult:
# COMPOUND, TGI
records = [
    ("COC(=O)C(=O)C(C(=O)C(=O)Nc1ccc(F)cc1)c1nc2ccc([N+](=O)[O-])cc2[nH]c1=O (stereo not given)", "> 100 µM"),
    ("CCOC(CN(C)C(=O)Nc1cccc2ccccc12)OCC", "> 10 µM"),
    ("Cn1cc2ccccc2c1-c1nc(F)nc(F)n1", "> 100 µM"),
]

Data request: Find the measured TGI of CC(=O)CC(=O)OC1CC(C)CCC1C(C)C (stereo not given) and report it.
Data returned: > 100 µM

Data request: Find the measured TGI of CCCCCCCCCCCCCCCCCCNc1ccn(C2OC(COP(=O)(O)OCC3OC(n4cc(F)c(=O)[nH]c4=O)CC3O)C(O)C2O)c(=O)n1 (stereo not given) and report it.
Data returned: > 100 µM

* * *

Tested on: SF-295 CNS
Assay: NCI tumour cell line growth inhibition, 48 h; in the data active = GI50 below about 0.43 µM; inactive = the rest
Your answer must be one of the following: Yes = active, No = inactive

As a guide, the following entries are already answered.
# COMPOUND, ASSIGNED CLASS
rows = [
    ("CCC[CH2][Sn]1([CH2]CCC)[O]C(=O)c2cccnc2[O]1", "No"),
    ("CN(O)c1nc(N(C)O)nc(N2CCOCC2)n1", "No"),
    ("CC(C)N(Cc1ccccc1)c1c(S)ssc1=S", "No"),
    ("Nc1c(C(=O)c2cccc(-c3ccncc3)c2)cnn1-c1ccc(F)cc1F", "No"),
    ("CN[C@@H](C)C(=O)N[C@H](C(=O)N1CCC[C@H]1C(=O)Nc1snnc1-c1ccccc1)C1CCCCC1", "No"),
]

Data request: Record lookup: outcome of this test for COc1ccc(/C(COc2ccc3c(=O)cc(-c4ccccc4)oc3c2)=N\O)cc1 ?
Data returned: No

Data request: Record lookup: outcome of this test for CN(CCCn1c2c(c3ccccc3c1=O)C(=O)c1ccccc1-2)CCCn1c2c(c3ccccc3c1=O)C(=O)c1ccccc1-2 ?
Data returned: Yes

Data request: Record lookup: outcome of this test for COc1cc([N+](=O)[O-])c(OC)cc1-c1nc2sc(Cl)cn2c1/C(N)=N/C(=N)N ?
Data returned: No

Data request: Record lookup: outcome of this test for COc1ccc2nc3cccc([N+](=O)[O-])c3c(NCCCCCC(=O)O)c2c1 ?
Data returned: No

Data request: Record lookup: outcome of this test for COc1ccc2cc(C(=O)/C=C/c3ccc(Cl)cc3Cl)ccc2c1 ?
Data returned: No

Data request: Record lookup: outcome of this test for c1ccc2[nH]c(-c3ccc(-c4nccc5c4[nH]c4ccccc45)cc3)nc2c1 ?
Data returned: No

Data request: Record lookup: outcome of this test for C=C1CCC2C3(C)COC(c4ccc(N(C)C)cc4)OC3CCC2(C)C1C/C=C1/C(=O)OCC1O (configuration not stated) ?
Data returned: No

* * *

Test system: EKVX NSCLC
Test: NCI tumour cell line growth inhibition, 48 h
Below is a list of entries, each paired with its recorded TGI value.

Answered cases to consult:
# COMPOUND, ASSAY SYSTEM, RESULT
rows = [
    ("O=C1CCC2C(O)c3cc4c(cc3C(c3ccc5c(c3)OCO5)N12)OCO4 (configuration not stated)", "EKVX NSCLC", "> 100 µM"),
    ("C/C(=N\\NS(=O)(=O)c1ccc(C)cc1)C(CN1CCCCC1)C(c1ccccc1)c1c(O)c2ccccc2oc1=O (configuration not stated)", "EKVX NSCLC", "> 100 µM"),
]

Data request: Find the measured TGI of CCOC(=O)NC(=O)c1cn(CCOC(=O)CCCCCCCCC(=O)OCCn2cc(C(=O)NC(=O)OCC)c(=O)[nH]c2=O)c(=O)[nH]c1=O and report it.
Data returned: > 100 µM

Data request: Find the measured TGI of COC(=O)C1(C(=O)OC)Cc2ccc(OC)cc2C2=C1C(=O)c1ccccc1C2=O and report it.
Data returned: 19.1 µM

Data request: Find the measured TGI of COc1cc([N+](=O)[O-])c(OC)cc1-c1nc2sc(Cl)cn2c1/C(N)=N/C(=N)N and report it.
Data returned: 40.9 µM

Data request: Find the measured TGI of NN(CC(=O)O)CC(=O)O and report it.
Data returned: > 100 µM

Data request: Find the measured TGI of O=C([O-])C[n+]1ccccc1 and report it.
Data returned: > 100 µM
